target: Pim-2 stably transfected into the U2OS human osteogenic sarcoma line (Homo sapiens); construct: expressed in transfected cells; host or cells: U2OS human osteogenic sarcoma line; assay: Pim cell assay, phospho-BAD normalized against total BAD, U2OS stably transfected with Pim-2; type: cell-based; details: read-out: Pim2_Cell_IC50; note: high dose 31.6 µM
Sequence (Q9P1W9 whole entry): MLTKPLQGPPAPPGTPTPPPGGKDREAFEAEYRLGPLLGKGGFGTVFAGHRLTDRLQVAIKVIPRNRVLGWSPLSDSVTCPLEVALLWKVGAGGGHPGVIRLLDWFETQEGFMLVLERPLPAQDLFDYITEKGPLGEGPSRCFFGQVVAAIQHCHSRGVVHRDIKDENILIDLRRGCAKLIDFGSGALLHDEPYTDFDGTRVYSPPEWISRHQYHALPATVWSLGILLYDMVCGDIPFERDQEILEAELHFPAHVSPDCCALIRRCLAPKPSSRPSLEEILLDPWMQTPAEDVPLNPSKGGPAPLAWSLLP
pIC50: −log10 of the molar value.
Measured pIC50 of individual entries

Solved cases (5 shown):
Fc1cccc(F)c1-c1ccc2[nH]cc(-c3cncc(NC4CCCNC4)c3)c2n1 (centres unmarked) [Example 33]	< 4.50
COc1cncc(-c2ccc3[nH]nc(-c4cnc(N5CCC(N)CC5)s4)c3c2)c1 [Example 31]	4.67
NC1CCN(c2cncc(-c3c[nH]c4ccc(-c5ccccc5F)nc34)c2)CC1 [Example 34]	< 4.50
CC(C)Oc1cncc(-c2ccc3[nH]cc(-c4ccnc(N)c4)c3c2)n1 [Example 28]	4.95
CC(C)Oc1cncc(-c2ccc3[nH]cc(-c4cncc(N(C)C)n4)c3c2)n1 [Example 230]	< 4.50

Incoming: Field request: pIC50 | item: CC(C)Oc1cncc(-c2ccc3[nH]cc(-c4cncc(O[C@@H]5CCCNC5)n4)c3c2)n1 [Example 213]
Outgoing: 4.72

Incoming: Field request: pIC50 | item: CC(C)Oc1cncc(-c2ccc3[nH]cc(-c4csc(-n5ccccc5=O)n4)c3c2)n1 [Example 227]
Outgoing: < 4.80

Incoming: Field request: pIC50 | item: Fc1cccc(F)c1-c1ccc2[nH]cc(-c3nccc(N[C@@H]4CCCNC4)n3)c2c1 [Example 24]
Outgoing: < 4.50
